- TESTED SYSTEM: S#067: CAR with VL-L1-VH scFv, Human 2nd-generation (4-1BB)_hIL7_hCCL19_HSVtk
- TEST NAME: flow cytometry on CAR-T cells; PE-labeled secondary antibody; PE-positive cells / total cells
ATTRIBUTE MEASURED: Reactivity (%)
Kindly answer with a numeric value in %, unit omitted.

Retrieve Reactivity (%) measured for 4B9-B11 (antibody, V domains shown) VH: QMQLKESGPGLVQPSETLSLTCTVSGFSLTSYSVSWVRQPSGKGPEWMGRMYYDGDTAYNSALKSRLSISRDTSKNQVFLKMNSLQTDDTGTYYCTRSIGAEDYWGQGVMVTVSS VL: TSYELIQPPSASVTLGNTVSLTCVGDELPKRYAYWYQQKPDQSIVRVIYEDSKRPSGISDRFSGSSSGTTATLTIRDAQNEDEADYYCHSTYSDDKLRIFGGGTKLTVLG and print it.
41.5
